system: CYP2C9; assay: in vitro; conditions: Sprague-Dawley, rat, microsomes, pH 7.4, % inhibition of CYP2C9 activity
QUANTITY: inhibition at 7.5 min, 100 μM (%)

P. O=c1c(O)c(-c2cc(O)c(O)c(O)c2)oc2cc(O)cc(O)c12
Q. O=c1cc(-c2ccc(O)cc2)oc2cc(O)c([C@@H]3O[C@H](CO)[C@@H](O)[C@H](O)[C@H]3O)c(O)c12
Query block: Rank P against Q by their inhibition at 7.5 min, 100 μM values and give the higher one. State your choice using its label.
Result block: P

* * *

tested on: CYP2C9; test: in vitro; conditions: Sprague-Dawley, rat, microsomes, pH 7.4
QUANTITY: inhibition at 7.5 min, 25 μM (%)
A number alone suffices; assume %.

Query block: Return reported inhibition at 7.5 min, 25 μM. Input compound: O=c1c(-c2ccc(O)cc2)coc2cc(O[C@@H]3O[C@H](CO)[C@@H](O)[C@H](O)[C@H]3O)ccc12 [Daidzin]
Result block: -1.16

* * *

test system: CYP2C9; assay: in vitro; details: Sprague-Dawley, rat, microsomes, pH 7.4, % inhibition of tolbutamide metabolism in microsomes
QUANTITY: inhibition at 7.5 min, 10 μM (%)
Express your answer in %, writing the number without its unit.

Query block: Look up and report measured inhibition at 7.5 min, 10 μM for this entry: COc1ccc(-c2oc3cc(O)cc(O)c3c(=O)c2O)cc1O [Tamarixetin]
Result block: 88.1

* * *

test system: CYP2C9; experiment: in vitro; conditions: Sprague-Dawley, rat, microsomes, pH 7.4, % inhibition of CYP2C9 activity
QUANTITY: inhibition at 7.5 min, 100 μM (%)

COc1ccc([C@@H]2CC(=O)c3c(O)cc(O[C@@H]4O[C@H](CO)[C@@H](O)[C@H](O)[C@H]4O[C@@H]4O[C@@H](C)[C@H](O)[C@@H](O)[C@H]4O)cc3O2)cc1 | 15

1. O=C(O)c1cc(O)c(O)c(O)c1
2. C=CC(=C)CCC=C(C)C
3. C=C[C@H]1[C@H](O[C@@H]2O[C@H](CO)[C@@H](O)[C@H](O)[C@H]2O)OC=C2C(=O)OCC[C@]21O
Query block: Please produce an ascending ranking of these molecules based on inhibition at 7.5 min, 100 μM. A ranking is expressed here by listing the labels in the requested order.
Result block: 1, 3, 2

* * *

tested on: CYP2C9; assay: in vitro; conditions: Sprague-Dawley, rat, microsomes, pH 7.4, % inhibition of CYP2C9 activity
QUANTITY: inhibition at 7.5 min, 1 μM (%)

COc1cc(O)c2c(=O)cc(-c3ccc(O)cc3)oc2c1 | 30.9
O=C1C[C@@H](c2ccc(O[C@@H]3O[C@H](CO)[C@@H](O)[C@H](O)[C@H]3O)cc2)Oc2cc(O)ccc21 | 18.1

P. O=C(CCc1ccc(O)cc1)c1c(O)cc(O)cc1O
Q. CC1(C)[C@@H](O[C@H]2O[C@H](C(=O)O)[C@@H](O)[C@H](O)[C@H]2O[C@@H]2O[C@H](C(=O)O)[C@@H](O)[C@H](O)[C@H]2O)CC[C@]2(C)[C@H]3C(=O)C=C4[C@@H]5C[C@@](C)(C(=O)O)CC[C@]5(C)CC[C@@]4(C)[C@]3(C)CC[C@@H]12
R. C[C@@H]1O[C@@H](OC[C@H]2O[C@@H](Oc3c(-c4ccc(O)c(O)c4)oc4cc(O)cc(O)c4c3=O)[C@H](O)[C@@H](O)[C@@H]2O)[C@H](O)[C@H](O)[C@H]1O
S. C[C@@]12C[C@@]3(O)O[C@@H](O1)[C@]1(COC(=O)c4ccccc4)[C@H]3C[C@@]12O[C@@H]1O[C@H](CO)[C@@H](O)[C@H](O)[C@H]1O
Query block: Sort by inhibition at 7.5 min, 1 μM, descending. Respond with an ordered listing of the labels, as requested.
Result block: P, S, Q, R
